Target: EcoFepB (Escherichia coli, UniProt P0AEL6, T297C)
Sequence (P0AEL6 27-318 T297C): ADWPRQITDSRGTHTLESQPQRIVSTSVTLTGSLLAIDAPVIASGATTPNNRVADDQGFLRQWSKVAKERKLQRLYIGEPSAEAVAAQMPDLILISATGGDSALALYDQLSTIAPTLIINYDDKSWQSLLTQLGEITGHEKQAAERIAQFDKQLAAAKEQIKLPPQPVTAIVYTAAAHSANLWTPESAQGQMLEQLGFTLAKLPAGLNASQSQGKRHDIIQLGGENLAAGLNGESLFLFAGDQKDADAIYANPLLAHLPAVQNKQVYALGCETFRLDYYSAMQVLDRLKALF
Assay: Fluorescence quenching binding, purified EcoFepB-FM sensor
Details: EcoFepB-FM (T297C), purified protein
property: Kd

[Q] Look up and report measured Kd (EcoFepB (Escherichia coli, UniProt P0AEL6, T297C)) for the following molecule: "O=C(N[C@H]1COC(=O)[C@@H](NC(=O)c2cccc(O)c2O)COC(=O)[C@@H](NC(=O)c2cccc(O)c2O)COC1=O)c1cccc(O)c1O.[Fe+3]"
[A] 43 µM

---

biological target: human siderocalin (HsaSCN) (Homo sapiens, UniProt P80188, Q148C); test: Fluorescence quenching binding, purified HsaSCN-FM sensor; conditions: HsaSCN-FM (Q128C), purified protein
Sequence (P80188 21-198 Q148C): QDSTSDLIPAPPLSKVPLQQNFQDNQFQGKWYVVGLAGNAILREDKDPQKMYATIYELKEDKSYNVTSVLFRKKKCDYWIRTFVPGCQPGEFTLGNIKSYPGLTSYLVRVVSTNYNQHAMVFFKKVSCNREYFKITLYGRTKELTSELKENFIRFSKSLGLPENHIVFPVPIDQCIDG
Square brackets hold non-standard residues; d marks the D form. Peptide text beside a SMILES is read from it. Orn(N5-OH,N5-Ac) = CC(=O)N(O)CCC[C@H](N)C(=O)O
property: Kd (µM)
// note: answer is a bare numeric in µM

compound	unit descriptor	Kd
O=C(O)c1cccc(O)c1O.[Fe+3]	µM	0.33
CC(C)(C1=N[C@@](C)(C(=O)O)CS1)[C@H](O)[C@@H]1CS[C@H]([C@H]2CSC(c3ccccc3O)=N2)N1.[Fe+3]	µM	11

From here, focus on the item given below.
[Q] Using known records, supply Kd for CC(=O)N([O-])CCC[C@@H]1NC(=O)CNC(=O)CNC(=O)CNC(=O)[C@H](CCCN([O-])C(C)=O)NC(=O)[C@H](CCCN([O-])C(C)=O)NC1=O.[Fe+3] [Fc, ferrichrome] (cyclo(GGG[Orn(N5-OH,N5-Ac)][Orn(N5-OH,N5-Ac)][Orn(N5-OH,N5-Ac)]))
[A] 0.11

---

target: EcoIutA (Escherichia coli, UniProt B7LI14, T574C); test: Fluorescence quenching binding, EcoIutA-FM sensor; settings: EcoIutA-FM sensor, fluorescence quenching
property: Kd (nM)
// note: answer is a bare numeric in nM

[Q] Using known records, supply Kd for "CC(=O)N(O)CCCC[C@H](NC(=O)CC(O)(CC(=O)N[C@@H](CCCCN(O)C(C)=O)C(=O)O)C(=O)O)C(=O)O.[Fe+3]"
[A] 6
